Experiment: Permeability through monolayer of Caco-2 cells
Type: in vitro ADME
Conditions: human; Caco-2 monolayer; A→B; 10 μM; pH 6.5 upper / pH 7.4 lower; 2 h at 37° C.
# reported Papp A→B at 2 h, 10 µM; entries follow
# value in ×10⁻⁶ cm/s; strip the unit string

Recorded Papp A→B at 2 h, 10 µM, per entry:
{"compound": "C=CC(=O)Nc1cc(Nc2nccc(C(=O)c3cc4ccccc4n3C)n2)c(OC)cc1N(C)CCN(C)C [EGFR_3365_94]", "property.name": "Papp A→B at 2 h, 10 µM", "numeric.readout": 6.54}
{"compound": "C=CC(=O)Nc1cc(Nc2nccc(C(=O)c3ccc(OCC)cc3)n2)c(OC)cc1N(C)CCN(C)C [EGFR_3365_29]", "property.name": "Papp A→B at 2 h, 10 µM", "numeric.readout": 4.26}
{"compound": "C=CC(=O)Nc1cc(Nc2nccc(C(=O)c3ccc(N4CCCCC4)cc3)n2)c(OC)cc1N(C)CCN(C)C [EGFR_3365_90]", "property.name": "Papp A→B at 2 h, 10 µM", "numeric.readout": 2.2}
{"compound": "C=CC(=O)Nc1cc(Nc2nccc(C(=O)c3ccc(OC)cc3)n2)c(OC)cc1N(C)CCN(C)C [EGFR_3365_28]", "property.name": "Papp A→B at 2 h, 10 µM", "numeric.readout": 3.84}
{"compound": "C=CC(=O)Nc1cc(Nc2nccc(C(=O)c3ccccc3C(F)(F)F)n2)c(OC)cc1N(C)CCN(C)C [EGFR_3365]", "property.name": "Papp A→B at 2 h, 10 µM", "numeric.readout": 5.28}

Query: I would be grateful if you could share the reported Papp A→B at 2 h, 10 µM for C=CC(=O)Nc1cc(Nc2nccc(C(=O)c3ccc(OC(C)C)cc3)n2)c(OC)cc1N(C)CCN(C)C [EGFR_3365_31] .
Reply: 3.7

Query: May I ask what Papp A→B at 2 h, 10 µM has been recorded for C=CC(=O)Nc1cc(Nc2cc(C(=O)c3ccc(N(C)C)cc3)ccn2)c(OC)cc1N(C)CCN(C)C.O=C(O)C(F)(F)F [EGFR_3365_4] ?
Reply: 2.86

Query: Any idea what its Papp A→B at 2 h, 10 µM is? The compound is C=CC(=O)Nc1cc(Nc2cc(C(=O)c3ccc(OC)cc3)ccn2)c(OC)cc1N(C)CCN(C)C [EGFR_3365_51]
Reply: 3.2

Query: Request the reported Papp A→B at 2 h, 10 µM associated with C=CC(=O)Nc1cc(Nc2nccc(C(=O)c3ccc(N4CCCC4)cc3)n2)c(OC)cc1N(C)CCN(C)C [EGFR_3365_63]
Reply: 4.9

Query: Entry C=CC(=O)Nc1cc(Nc2nccc(C(=O)c3ccc(F)cc3)n2)c(OC)cc1N(C)CCN(C)C [EGFR_3365_10] : reported Papp A→B at 2 h, 10 µM = ?
Reply: 2.88

Query: # query: Papp A→B at 2 h, 10 µM of entry C=CC(=O)Nc1cc(Nc2cc(C(=O)c3ccc(N4CCCC4)cc3)ccn2)c(OC)cc1N(C)CCN(C)C [EGFR_3365_56]
Reply: 1.8
